Molecular target: T1, CD137-Fc-His6 fusion protein
T1 construct: Made in HEK293 cells, IMAC purified; also called CD137 target protein
Assay: biolayer interferometry (ForteBio), CD137-Fc-His6 immobilized via protein A, steady state fit
QUANTITY NAME: Kd (nM)
One number for each entry, in nM.

SEQ ID NO 55 (designed binder, E. coli, IMAC and HPLC purified) MGSWFEFNHRLWAINERLYALGGSEAELAAFEKEIAAFESELQAYKGKGNPEVERLRSMAAFIRYKLQAYRHNGGGGSHHHHHH :: 170

Report Kd for every entry below.
1. SEQ ID NO 56 (designed binder, E. coli, IMAC and HPLC purified) MGSWYEFGHRLWAIDQRLYALGGSEAELAAFEKEIAAFESELQAYKGKGNPEVEYLRETAAHIRTRLQAYRHNGGGGSHHHHHH
2. SEQ ID NO 58 (designed binder, E. coli, IMAC and HPLC purified; also called His-fusion of bb10) MGSWAEFKQRLAAIKTRLEALGGSEAELAAFLGEIWAFEMELAAYKGKGNPEVEALGREAAAIRMELQAYRHNGGGGSHHHHHH

OUT:
[770, 1700]
